Biological target: T1, orthogonal hCD122 receptor (hoRb), hCD122 with H133D and Y134F (human, UniProt P14784 27-550)
T1 sequence: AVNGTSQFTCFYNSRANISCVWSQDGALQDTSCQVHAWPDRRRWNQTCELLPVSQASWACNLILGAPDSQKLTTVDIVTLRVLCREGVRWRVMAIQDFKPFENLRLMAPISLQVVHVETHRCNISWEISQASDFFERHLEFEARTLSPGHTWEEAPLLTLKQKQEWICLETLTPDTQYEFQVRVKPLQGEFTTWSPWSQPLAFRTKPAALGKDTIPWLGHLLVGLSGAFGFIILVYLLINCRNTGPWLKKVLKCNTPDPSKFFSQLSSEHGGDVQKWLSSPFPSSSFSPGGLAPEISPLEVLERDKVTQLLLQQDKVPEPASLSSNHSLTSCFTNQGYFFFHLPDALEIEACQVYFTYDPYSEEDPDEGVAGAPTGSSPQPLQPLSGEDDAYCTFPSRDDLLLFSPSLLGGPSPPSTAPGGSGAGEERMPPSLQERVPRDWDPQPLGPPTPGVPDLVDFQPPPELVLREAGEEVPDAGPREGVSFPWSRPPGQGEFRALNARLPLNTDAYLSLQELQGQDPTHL
Assay: cell-based or functional assay
Rule: NKL Ortho Proliferation Signal 1:50 of 9000 or more gives y; anything lower gives n.

Example entries and their recorded answers appear below.
# binder, labelClass
measured = [
    ("T3A, SQVLKA (ligand) APASSSTKKTQLQLSQLLVLLKAILNGINNYKNPKLTRMLTFKFYMPKKATELKHLQCLEEELKPLEEVLNLAQSKNFHLRPRDLISNINVIVLELKGSETTFMCEYADETATIVEFLNRWITFCQSIISTLT", "y"),
    ("L80F, SQVLKA (ligand) APTSSSTKKTQLQLSQLLVLLKAILNGINNYKNPKLTRMLTFKFYMPKKATELKHLQCLEEELKPLEEVLNLAQSKNFHFRPRDLISNINVIVLELKGSETTFMCEYADETATIVEFLNRWITFCQSIISTLT", "y"),
    ("SQVLKF (ligand) APTSSSTKKTQLQLSQLLVLLKFILNGINNYKNPKLTRMLTFKFYMPKKATELKHLQCLEEELKPLEEVLNLAQSKNFHLRPRDLISNINVIVLELKGSETTFMCEYADETATIVEFLNRWITFCQSIISTLT", "y"),
]

Identify whether the reported NKL Ortho Proliferation Signal 1:50 of the following binder is 9000 or greater: R81I, SQVLKA (ligand) APTSSSTKKTQLQLSQLLVLLKAILNGINNYKNPKLTRMLTFKFYMPKKATELKHLQCLEEELKPLEEVLNLAQSKNFHLIPRDLISNINVIVLELKGSETTFMCEYADETATIVEFLNRWITFCQSIISTLT
y

Identify whether the reported NKL Ortho Proliferation Signal 1:50 of the following binder is 9000 or greater: N88E, SQVLKA (ligand) APTSSSTKKTQLQLSQLLVLLKAILNGINNYKNPKLTRMLTFKFYMPKKATELKHLQCLEEELKPLEEVLNLAQSKNFHLRPRDLISEINVIVLELKGSETTFMCEYADETATIVEFLNRWITFCQSIISTLT
n
